// reported PAH enzyme activity (L-Tyrosine formation) WT PAH Mean per item
Molecular target: wild-type PAH (Homo sapiens (Human), UniProt P00439)
Sequence (P00439 whole entry): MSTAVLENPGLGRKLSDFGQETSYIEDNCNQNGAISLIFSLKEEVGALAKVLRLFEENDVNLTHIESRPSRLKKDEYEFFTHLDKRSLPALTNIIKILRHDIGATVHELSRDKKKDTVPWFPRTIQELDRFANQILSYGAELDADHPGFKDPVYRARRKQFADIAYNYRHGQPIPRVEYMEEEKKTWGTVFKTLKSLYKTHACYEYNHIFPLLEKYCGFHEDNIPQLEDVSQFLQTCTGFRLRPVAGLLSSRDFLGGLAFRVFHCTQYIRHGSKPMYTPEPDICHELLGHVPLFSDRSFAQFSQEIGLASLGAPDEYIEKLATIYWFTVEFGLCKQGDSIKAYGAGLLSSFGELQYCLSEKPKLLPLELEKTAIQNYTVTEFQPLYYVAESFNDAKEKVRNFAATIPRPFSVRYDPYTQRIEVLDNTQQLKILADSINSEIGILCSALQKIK
Assay: Phenylalanine hydroxylase enzyme activity assay in transfected COS7 cells
Assay type: cell-based
Conditions: compound 10 μM (sepiapterin 5 μM), 48 h
Procedure: 2. Phenylalanine Hydroxylase Enzyme Activity Assay This assay was completed in cell culture to analyze the enzyme activity in the presence of compounds. […] Cells were treated with the compounds at a final concentration of 10 μM and the enzyme activity of PAH was analyzed 48 h after transfection. The effect of the compounds on the residual enzyme activity was determined in comparison to non-treated cells (NCC, only compound solvent final 0.1%). […]
Counter-ions that a name gives are not always drawn.
recorded-metric: PAH enzyme activity (L-Tyrosine formation) WT PAH Mean (% NCC)

1) Cc1ccc2[nH]c(N)nc(=O)c2c1Sc1ccncc1 [Nolatrexed 2HCl]    284.15
2) C[C@H](O)C(=O)C1=Nc2c([nH]c(N)nc2=O)NC1 [Sepiapterin]    297.14
3) Nc1nc(N)c2nc(-c3ccccc3)c(N)nc2n1    118.98
4) CCN1CCCC1CNC(=O)c1cc(S(=O)(=O)CC)ccc1OC (stereo not shown) [Sultopride HCl]    104.71

* * *

biological target: Arg261Gln (R261Q) PAH (Homo sapiens (Human), UniProt P00439, R261Q); experiment: Phenylalanine hydroxylase enzyme activity assay in transfected COS7 cells; type: cell-based; settings: compound 10 μM (sepiapterin 5 μM), 48 h
Sequence (P00439 whole entry R261Q): as the sequence (P00439 whole entry) above, with R261Q counted along it
Structures can show the parent of a compound that is named as a salt.
// reported PAH enzyme activity (L-Tyrosine formation) R261Q PAH Mean per item
recorded-metric: PAH enzyme activity (L-Tyrosine formation) R261Q PAH Mean (% NCC)

1) CCN1CCCC1CNC(=O)c1cc(S(=O)(=O)CC)ccc1OC (stereo not shown) [Sultopride HCl]    131.23
2) C[C@H](O)C(=O)C1=Nc2c([nH]c(N)nc2=O)NC1 [Sepiapterin]    2089.79
3) Cc1ccc2[nH]c(N)nc(=O)c2c1Sc1ccncc1 [Nolatrexed 2HCl]    531.60
4) Nc1nc(N)c2nc(-c3ccccc3)c(N)nc2n1    161.48

* * *

Target: wild-type PAH (Homo sapiens (Human))
Assay: Thermal stability shift assay (DSF)
Assay type: binding
Details: compound 30 μM (BH4 43 μM); shift of transition midpoint 1 vs NCC
Experimental: 1. Thermal Stability Shift Assay […] The data was normalized and the respective Tm values were calculated by bi-phasic equation to determine temperatures at which half denaturation occurred (Software GraphPadPrism). […]
Counter-ions that a name gives are not always drawn.
// reported ΔTm1 WT PAH per item
recorded-metric: ΔTm1 WT PAH (°C)

1) Nc1nc(N)c2nc(-c3ccccc3)c(N)nc2n1    0.33
2) C=CCn1c(=O)n([C@@H]2O[C@H](CO)C(O)C2O)c2nc(N)[nH]c(=O)c21 (stereo in doubt)    3.57
3) CN1CCc2cc3c(cc2C1O)OCO3 (stereo not shown) [Hydrastinine HCl]    −0.49
4) CCc1cccc2cc(C(O)CNC(C)(C)C)oc12 (stereo not shown) [S-Bufuralol HCl]    1.05
5) CCC[S+]([O-])c1ccc2[nH]c(NC(=O)OC)nc2c1 (stereo not shown)    −0.48
6) CCc1cccc2cc(C(O)CNC(C)(C)C)oc12 (stereo not shown) [Bufuralol HCl]    1.62
7) C[C@H](O)[C@H](O)[C@H]1CNc2[nH]c(N)nc(=O)c2N1 [BH4, 6R-L-erythro-5,6,7,8-tetrahydrobiopterin]    0.20
